Origin of the recorded values: paper PMC5540273

Test system: RAF1;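 note: KINOMEscan kinase panel screen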
Details: concentration: 1 μM, replicates: in singlicate; n = 1
Each entry gets not met if its %Inh stays under 3%, and met if its %Inh is 3% or above.

Chemical smiles	Test system	Group label
CCC(=O)c1c(-c2ccccc2)c2cc(Cl)ccc2c(=O)n1Cc1ccc(C(=O)O)cc1	RAF1	met
CCn1c(-c2nonc2N)nc2ccccc21	RAF1	not met
Cc1ccc(Oc2ccc(Nc3ncnc4cc[nH]c34)cc2C)cn1	RAF1	met
COc1ccc(-c2coc3ccc(-c4nnc(SCc5cccc(C#N)c5)o4)cc23)cc1	RAF1	met
Nc1n[nH]c2ncc(-c3ccccc3)cc12	RAF1	not met
COc1cccc(-n2cnc3c(N)ncnc32)c1	RAF1	not met
CN1C(=O)C(Nc2ccccc2)=C(c2ccccc2)C1=O	RAF1	met
COC(=O)c1c(-c2ccccc2)c2cc(Br)ccc2c(=O)n1Cc1ccc(NC(=O)CCC(=O)O)cc1	RAF1	met
CCn1c(-c2ccoc2)nc2cnccc21	RAF1	met
